# Tested on: Pseudomonas aeruginosa ATCC 10145
# assay.details: Minimum Inhibitory Concentration (MIC), modified microbroth dilution
# Assay type: cell-based
# recorded.conditions: P. aeruginosa (10145); overnight incubation (18 hours)
observable: MIC50 P. Aeruginosa (mg/L)

Worked examples, 4 compounds total:
NCCCOc1cc(OCCCN)cc(-c2cc(F)cc(-c3cc(F)cc(-c4cc(OCCCN)cc(OCCCN)c4)c3)c2)c1 3.13
NCCCN(CCCN)Cc1cccc(-c2ccc3sc4ccc(-c5cccc(CN(CCCN)CCCN)c5)cc4c3c2)c1 6.25
NCCCOc1cc(OCCCN)cc(-c2ccc3c(c2)c2ccccc2n3CCCN)c1 50
N=C(N)NCCCOc1cc(OCCCNC(=N)N)cc(-c2ccc3sc4ccc(-c5cc(OCCCN)c(OCCCN)c(OCCCN)c5)cc4c3c2)c1 25

(a) NCCc1cccc(-c2cc3c(c(-c4cccc(CCN)c4)c2)CCc2ccccc2C3=O)c1
(b) N=C(N)NCC#Cc1cc(C#CCNC(=N)N)cc(-c2cc(-c3cc(C#CCNC(=N)N)cc(C#CCNC(=N)N)c3)cc(C(F)(F)F)c2)c1
## Input Which one would you say has the larger MIC50 P. Aeruginosa value: a , or b ? API: response body contains the label of the selected item.
## Output a
(a: 25 mg/L, b: 6.25 mg/L)

----------
# assay.details: Cytotoxicity colorimetric (tetrazolium) assay
# Type: cell-based, human
# recorded.conditions: human, HepG2 cells (HB-8065), HepG2 cells; one hour with compound in serum-free media
observable: EC50 at 1 h (µg/mL)
Write the value in µg/mL as a bare number.

NCCCOc1cc(OCCCN)cc(-c2ccc3sc4ccc(-c5cc(OCCCN)c(OCCCN)c(OCCCN)c5)cc4c3c2)c1 173
N=C(N)NCCc1cc(C#Cc2ccc(C#Cc3cc(CCNC(=N)N)cc(CCNC(=N)N)c3)cc2)cc(CCNC(=N)N)c1 135
N=C(N)NCCc1cc(CCNC(=N)N)cc(-c2csc(-c3cccc(-c4nc(-c5cc(CCNC(=N)N)cc(CCNC(=N)N)c5)cs4)c3)n2)c1 55.6
NCCc1ccc(C#Cc2cccc(C#Cc3ccc(CCN)c(CCN)c3)c2)cc1CCN 192

// switching to the query molecule
## Input Item under review: NCCc1cccc(-c2cc(-c3cccc(-c4cc(-c5cccc(CCN)c5)on4)c3)no2)c1 . Reported EC50 at 1 h?
## Output 47

----------
Reported EC50 NIH 3T3 (cytotoxicity) by item:
# System: NIH/3T3 cells, CRL-1658
# assay.details: Cytotoxicity colorimetric (tetrazolium) assay
# Format: cell-based, mouse
# recorded.conditions: NIH/3T3 cells; one hour with compound in serum-free media
Write the value in µg/mL as a bare number.

compound	EC50 NIH 3T3 (cytotoxicity) [µg/mL]
NCCN(CCN)Cc1cccc(-c2ccc3sc4ccc(-c5cccc(CN(CCN)CCN)c5)cc4c3c2)c1 [Compound 174]	149

## Input Item under review: NCCCOc1cc(OCCCN)cc(-c2ccc3c(c2)C(=O)c2cc(-c4cc(OCCCN)cc(OCCCN)c4)ccc2CC3)c1 [Compound 156] . Reported EC50 NIH 3T3 (cytotoxicity)?
## Output 88.1

## Input Item under review: NCCCOc1cc(OCCCN)cc(-c2cc(F)cc(-c3cc(F)cc(-c4cc(OCCCN)cc(OCCCN)c4)c3)c2)c1 [Compound 148] . Reported EC50 NIH 3T3 (cytotoxicity)?
## Output 53.77

## Input Item under review: c1cc(CN2CCNCC2)cc(-c2ccc3sc4ccc(-c5cccc(CN6CCNCC6)c5)cc4c3c2)c1 [Compound 175] . Reported EC50 NIH 3T3 (cytotoxicity)?
## Output 19.9

## Input Item under review: Cc1cc(-c2cc(OCCCN)cc(OCCCN)c2)cc(-c2cc(C)cc(-c3cc(OCCCN)cc(OCCCN)c3)c2)c1 [Compound 147] . Reported EC50 NIH 3T3 (cytotoxicity)?
## Output 50.94

## Input Item under review: NCCCOc1cc(OCCCN)cc(-c2ccc3sc4ccc(-c5cc(OCCCN)cc(OCCCN)c5)cc4c3c2)c1 [Compound 200] . Reported EC50 NIH 3T3 (cytotoxicity)?
## Output 155

----------
# Test system: E. Coli ATCC 25922
# assay.details: Minimum Inhibitory Concentration (MIC), modified microbroth dilution
# Type: cell-based
# recorded.conditions: E. coli (25922); overnight incubation (18 hours)
observable: MIC50 E. coli (mg/L)

Worked examples, 8 molecules total:
molecule	value.observed
NCCCOc1cc(OCCCN)cc(-c2ccc3sc4ccc(-c5cc(OCCCN)cc(OCCCN)c5)cc4c3c2)c1 [Compound 200]	0.78
Cc1cc(-c2cc(OCCCN)cc(OCCCN)c2)cc(-c2cc(C)cc(-c3cc(OCCCN)cc(OCCCN)c3)c2)c1 [Compound 147]	1.56
NCCNc1ccc(-c2ccc3sc4ccc(-c5ccc(NCCN)cc5)cc4c3c2)cc1 [Compound 173]	6.25
NCC#Cc1cc(C#CCN)cc(-c2cc(-c3cc(C#CCN)cc(C#CCN)c3)cc(C(F)(F)F)c2)c1 [Compound 125]	12.5
NCCN(CCN)Cc1cccc(-c2ccc3[nH]c4ccc(-c5cccc(CN(CCN)CCN)c5)cc4c3c2)c1 [Compound 179]	1.56
CCn1c2ccc(-c3cccc(N)c3)cc2c2cc(-c3cccc(N)c3)ccc21 [Compound 176]	12.5
N=C(N)NCC#Cc1cc(C#CCNC(=N)N)cc(-c2cc(-c3cc(C#CCNC(=N)N)cc(C#CCNC(=N)N)c3)cc(C(F)(F)F)c2)c1 [Compound 126]	6.25
NCCN(CCN)Cc1ccc(F)c(-c2ccc3sc4ccc(-c5cc(CN(CCN)CCN)ccc5F)cc4c3c2)c1 [Compound 180]	1.56

(1) NCCC#Cc1cc(-c2cc(OCCCN)cc(-c3cc(C#CCCN)cc(C(F)(F)F)c3)c2)cc(C(F)(F)F)c1 [Compound 122]
(2) NCCCOc1cc(-c2ccc3sc4ccc(-c5cc(OCCCN)c(OCCCN)c(OCCCN)c5)cc4c3c2)cc(OCCCN)c1OCCCN [Compound 184]
(3) N=C(N)NCCCOc1cc(-c2ccc3sc4ccc(-c5cc(OCCCNC(=N)N)c(OCCCNC(=N)N)c(OCCCNC(=N)N)c5)cc4c3c2)cc(OCCCNC(=N)N)c1OCCCNC(=N)N [Compound 186]
(4) Cl.Cl.NCCCc1cccc(-c2cccc(-c3cccc(CCCN)c3)c2)c1 [Compound 110]
(5) N=C(N)NCCc1cc(CCNC(=N)N)cc(-c2cc(F)cc(-c3cc(F)cc(-c4cc(CCNC(=N)N)cc(CCNC(=N)N)c4)c3)c2)c1 [Compound 151]
## Input Output the entries ranked by MIC50 E. coli from maximum down to minimum. Returns: the labels arranged in the requested order.
## Output 4, 3, 2, 1, 5
(4: 25 mg/L, 3: 12.5 mg/L, 2: 6.25 mg/L, 1: 3.13 mg/L, 5: 1.56 mg/L)

(a) CCn1c2ccc(-c3cc(C(=O)NCCN)cc(C(=O)NCCN)c3)cc2c2cc(-c3cc(C(=O)NCCN)cc(C(=O)NCCN)c3)ccc21 [Compound 169]
(b) NCCN(CCN)Cc1cccc(-c2ccc3sc4ccc(-c5cccc(CN(CCN)CCN)c5)cc4c3c2)c1 [Compound 174]
(c) N=C(N)NCCCOc1cc(OCCCNC(=N)N)cc(-c2ccc3sc4ccc(-c5cc(OCCCN)c(OCCCN)c(OCCCN)c5)cc4c3c2)c1 [Compound 185]
## Input Could you please order the items by MIC50 E. coli, going from the lowest number to the highest? Returns: the labels arranged in the requested order.
## Output b, c, a
(b: 3.13 mg/L, c: 6.25 mg/L, a: 25 mg/L)

----------
Reported EC50 at 1 h by item:
# assay.details: Cytotoxicity colorimetric (tetrazolium) assay
# Format: cell-based, mouse
# recorded.conditions: mouse, NIH/3T3 cells (CRL-1658), NIH/3T3 cells; one hour with compound in serum-free media
Write the value in µg/mL as a bare number.

Worked examples, 3 compounds total:
compound	EC50 at 1 h / µg/mL
NCCCn1cc(-c2ccc3oc4ccc(-c5cnn(CCCN)c5)cc4c3c2)cn1 [Compound 157]	713
NCCCOc1cc(OCCCN)cc(-c2ccc(C(=O)c3ccc(-c4cc(OCCCN)cc(OCCCN)c4)cc3)cc2)c1 [Compound 165]	357
NCCc1cc(CCN)cc(-c2csc(-c3cccc(-c4nc(-c5cc(CCN)cc(CCN)c5)cs4)c3)n2)c1 [Compound 135]	34.5

## Input Item under review: N=C(N)NCCCOc1cc(OCCCNC(=N)N)c(-c2ccc(F)c(F)c2)cc1-c1ccc(F)c(F)c1 [Compound 119] . Reported EC50 at 1 h?
## Output 113

## Input Item under review: N=C(N)NCCc1cc(C#Cc2ccc(C#Cc3cc(CCNC(=N)N)cc(CCNC(=N)N)c3)cc2)cc(CCNC(=N)N)c1 [Compound 199] . Reported EC50 at 1 h?
## Output 116

## Input Item under review: NCCCOc1cc(OCCCN)cc(-c2ccc(C(F)(F)c3ccc(-c4cc(OCCCN)cc(OCCCN)c4)cc3)cc2)c1 [Compound 166] . Reported EC50 at 1 h?
## Output 84

## Input Item under review: NCCCOc1cc(OCCCN)cc(-c2cccc(-c3cccc(-c4cc(OCCCN)cc(OCCCN)c4)c3)c2)c1 [Compound 144] . Reported EC50 at 1 h?
## Output 320
